# procedure_text: chemical genetic growth profiling, strain panel (AID 1159580);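 further: tested at 20 µM; growth read once vehicle control cultures reached saturation at 30 °C; 1 = growth at the plate median or of vehicle wells; lower values mean less growth of the strain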
# test_context: S. cerevisiae deletion strains, growth OD, locus YEL037C, strain rad23, stronger effect = lower value
Hit rate of the full screen: of about 5,500 compounds, about 2,000 (36%) were called active. Not shown: some 18% with an inconclusive outcome. The list shows a part of the results.
measured_quantity: normalized growth
// return a plain number; no unit text

Item COc1ccc2c(c1)OC/C(=C\c1ccc(OC)c(O)c1)C2=O : provide normalized growth
0.954

Item COC(=O)C[C@H]1C2(C)CC34OC5(C)O[C@@]6([C@H](OC)C(OC(=O)C(C)C)[C@]7(C)C(/C(=C(/OC)C(C)C)C(=O)O[C@H]7c7ccoc7)[C@@]6(O5)[C@H](OC)[C@@]3(OC)C2OC(C)=O)[C@]14C (stereo partly drawn) : provide normalized growth
0.99

Item C[C@@H]1CC(Cl)CC[C@H]1C(=O)OC(C)(C)C (stereo partly drawn) : provide normalized growth
0.983

Item Cc1ccc(S(=O)(=O)NC(=O)NN2CCCCCC2)cc1 : provide normalized growth
0.975

Item NS(=O)(=O)c1cc2c(cc1Cl)NC=NS2(=O)=O : provide normalized growth
0.999

Item O=C(O)CCCc1ccccc1 : provide normalized growth
0.989

Item Nc1nc(=S)c2[nH]cnc2[nH]1 : provide normalized growth
0.973

Item COC(=O)C[C@H]1C2(C)CC34OC5(C)O[C@@]6([C@H](OC(C)=O)C(OC(C)=O)[C@]7(C)C(/C(=C(/O)C(C)C)C(=O)O[C@H]7c7ccoc7)[C@@]6(O5)[C@H](OC(C)=O)[C@@]3(O)C2OC(=O)C(C)C)[C@]14C (stereo partly drawn) : provide normalized growth
0.997

The values you see were collected from PubChem BioAssay AID1159580.
